Reference for the values: paper PMC5405701

- System: MCF-7 breast cancer cells
- ASSAY NOTES: antiproliferative activity, MTT assay, MCF-7
- COND: Homo sapiens, MCF7, 72 h, read-out: MCF-7 Inhibition (%)
inhibition at 10 µM for assorted compounds
REPORTED PROPERTY: inhibition at 10 µM (%)

                                   compound                target_desc  recorded_number
0  Oc1ccc(-c2cc(-c3ccc(O)cc3)c(-c3ccc(O)cc3)[se]2)cc1 [Compound 8a, 2,3,5-Tris(4-hydroxyphenyl)selenophene]  MCF-7 breast cancer cells             29.6
1  Oc1ccc(-c2cc(Br)c(-c3ccc(O)cc3F)[se]2)c(F)c1  MCF-7 breast cancer cells              8.1
2  Oc1ccc(-c2ccc(-c3ccc(O)cc3Cl)[se]2)c(Cl)c1  MCF-7 breast cancer cells             19.6
3  Oc1cc(-c2ccc(-c3ccc(F)c(O)c3)[se]2)ccc1F  MCF-7 breast cancer cells              4.4

---

- TARGET DESC: ERβ (Homo sapiens, UniProt Q92731)
- Sequence (Q92731 whole entry): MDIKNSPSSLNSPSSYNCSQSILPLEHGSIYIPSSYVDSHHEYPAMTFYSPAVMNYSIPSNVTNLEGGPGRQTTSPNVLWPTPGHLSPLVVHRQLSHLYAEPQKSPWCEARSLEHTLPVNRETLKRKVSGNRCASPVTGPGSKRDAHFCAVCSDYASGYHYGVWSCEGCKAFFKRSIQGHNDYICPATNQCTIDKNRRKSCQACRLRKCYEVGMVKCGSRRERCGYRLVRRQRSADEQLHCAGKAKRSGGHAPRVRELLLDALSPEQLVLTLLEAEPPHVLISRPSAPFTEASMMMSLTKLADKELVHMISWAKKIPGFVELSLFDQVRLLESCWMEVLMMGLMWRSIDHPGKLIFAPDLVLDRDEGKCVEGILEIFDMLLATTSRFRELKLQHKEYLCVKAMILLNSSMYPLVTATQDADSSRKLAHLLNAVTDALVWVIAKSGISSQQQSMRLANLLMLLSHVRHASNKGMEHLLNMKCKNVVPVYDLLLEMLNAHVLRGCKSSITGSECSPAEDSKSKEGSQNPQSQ
- ASSAY NOTES: cell-based
- Type: cell-based
- COND: reporter gene assay, HEK293T
REPORTED PROPERTY: transcriptional activity profile on ERβ

>>> print(df.to_string())
                                   molecule                        reported_property      result
0  Cc1cc(-c2ccc(-c3cc(C)c(O)c(C)c3)[se]2)cc(C)c1O  transcriptional activity profile on ERβ    inactive
1  Cc1cc(-c2ccc(-c3ccc(O)c(C)c3)[se]2)ccc1O  transcriptional activity profile on ERβ    inactive
2  Oc1ccc(-c2c[se]cc2-c2ccc(O)cc2)cc1 [Compound 4a, 3,4-Bis(4-hydroxyphenyl)selenophene]  transcriptional activity profile on ERβ  antagonist
3  Oc1ccc(-c2cc(-c3ccc(O)cc3)c(-c3ccc(O)cc3)[se]2)cc1 [Compound 8a, 2,3,5-Tris(4-hydroxyphenyl)selenophene]  transcriptional activity profile on ERβ  antagonist

---

inhibition at 10 µM for assorted compounds
- System: MCF-7 breast cancer cells
- ASSAY NOTES: antiproliferative activity, MTT assay, MCF-7
- COND: Homo sapiens, MCF7, 72 h, read-out: MCF-7 Inhibition (%)
REPORTED PROPERTY: inhibition at 10 µM (%)

                                   molecule  scale_unit  recorded_number
0  Cc1cc(O)ccc1-c1cc(Br)c(-c2ccc(O)cc2C)[se]1           %              2.5
1  Oc1ccc(-c2cc(Br)c(-c3ccc(O)cc3)[se]2)cc1           %                0
2  Cc1cc(-c2cc(-c3cc(C)c(O)c(C)c3)c(-c3cc(C)c(O)c(C)c3)[se]2)cc(C)c1O           %             75.3
3  Cc1cc(-c2cc(Br)c(-c3ccc(O)c(C)c3)[se]2)ccc1O           %             26.1
4  Oc1ccc(-c2ccc(-c3ccc(O)cc3F)[se]2)c(F)c1           %             10.5
5  Cc1cc(-c2cc(-c3ccc(O)c(C)c3)c(-c3ccc(O)c(C)c3)[se]2)ccc1O           %             16.6
6  Oc1ccc(F)c(-c2ccc(-c3cc(O)ccc3F)[se]2)c1           %             17.9
7  Cc1cc(O)cc(C)c1-c1ccc(-c2c(C)cc(O)cc2C)[se]1           %             19.3
8  Cc1cc(-c2ccc(-c3ccc(O)c(C)c3)[se]2)ccc1O           %              9.3
